- System: CCRIS mutagenicity, Ames/micronucleus/aberration tests
- PROCEDURE SUMMARY: CCRIS mutagenicity studies
- MEASUREMENT CONTEXT: Test System: AMES SALMONELLA TYPHIMURIUM; Strain/Indicator: TA97; Metabolic Activation: NONE; Method: PREINCUBATION
The source made the active and inactive calls. The rule behind the calls is not given here.
Outcome codes: 1.0 (active), 0.0 (inactive)

MOLECULE	EXPERIMENTAL TARGET	LABEL VALUE
COC[CH2][Hg][Cl]	CCRIS mutagenicity, Ames/micronucleus/aberration tests	0.0
CCCCCCCCCCCCCCCCC1CO1 (centres undefined)	CCRIS mutagenicity, Ames/micronucleus/aberration tests	0.0
COc1cc(C(C)=O)ccc1O	CCRIS mutagenicity, Ames/micronucleus/aberration tests	0.0
CCCCCCCCCCCC(=O)[O][Sn]([CH2]CCC)([CH2]CCC)[O]C(=O)CCCCCCCCCCC	CCRIS mutagenicity, Ames/micronucleus/aberration tests	0.0
COc1ccc(C(=O)Nc2ccccc2)cc1[N+](=O)[O-]	CCRIS mutagenicity, Ames/micronucleus/aberration tests	0.0
C=CC(=O)OCCCCCCOC(=O)C=C	CCRIS mutagenicity, Ames/micronucleus/aberration tests	0.0
O=S(=O)(O)c1cc(S(=O)(=O)O)c2c(N=Nc3ccccc3)c(O)ccc2c1	CCRIS mutagenicity, Ames/micronucleus/aberration tests	0.0
CCCCOCCOCCSC#N	CCRIS mutagenicity, Ames/micronucleus/aberration tests	0.0
CCN(Cc1ccccc1)c1ccccc1	CCRIS mutagenicity, Ames/micronucleus/aberration tests	0.0
O=C(O)C(=O)O	CCRIS mutagenicity, Ames/micronucleus/aberration tests	0.0
Nc1ccccc1Cl	CCRIS mutagenicity, Ames/micronucleus/aberration tests	0.0
CCCCCCC(=O)O	CCRIS mutagenicity, Ames/micronucleus/aberration tests	0.0
O[C@H]1[C@H]2O[C@H]2c2c(ccc3ccccc23)[C@@H]1O	CCRIS mutagenicity, Ames/micronucleus/aberration tests	1.0
CC(C)CCCCCOC(=O)C[S][Sn]([CH3])([S]CC(=O)OCCCCCC(C)C)[S]CC(=O)OCCCCCC(C)C	CCRIS mutagenicity, Ames/micronucleus/aberration tests	0.0
CCc1cc(C(N)=S)ccn1	CCRIS mutagenicity, Ames/micronucleus/aberration tests	0.0
Oc1cc(Cl)c(Cl)c(Cl)c1Cl	CCRIS mutagenicity, Ames/micronucleus/aberration tests	0.0
Nc1ccc(Cl)cc1	CCRIS mutagenicity, Ames/micronucleus/aberration tests	0.0
COC(=O)[C@H]1[C@H]2C[C@@H]3c4[nH]c5cc(OC)ccc5c4CCN3C[C@H]2C[C@@H](OC(=O)/C=C/c2cc(OC)c(OC)c(OC)c2)[C@@H]1OC	CCRIS mutagenicity, Ames/micronucleus/aberration tests	0.0
N[C@@H](CC(=O)O)C(=O)O	CCRIS mutagenicity, Ames/micronucleus/aberration tests	0.0
COc1cc(NCCCCCNC(C)C)c2ncccc2c1	CCRIS mutagenicity, Ames/micronucleus/aberration tests	0.0
CC(N)[13C](=O)O (centres undefined)	CCRIS mutagenicity, Ames/micronucleus/aberration tests	0.0
N[C@@H](Cc1c[nH]c2ccccc12)C(=O)O	CCRIS mutagenicity, Ames/micronucleus/aberration tests	0.0
COCCO	CCRIS mutagenicity, Ames/micronucleus/aberration tests	0.0
NC(=O)c1ccccc1O	CCRIS mutagenicity, Ames/micronucleus/aberration tests	0.0
